molecular target: T1, monocyte chemo-attractant protein-1 (MCP-1) (Homo sapiens (Human)., UniProt P13500); experiment: SPR; Biacore T200; MCP-1 immobilised on a CM5 chip by amine coupling (~220 RU), scFv injected at 30 µl/min; PBS with 0.005% Tween-20; 25°C; global fit, 1:1 Langmuir model; KD from koff/kon; conditions: both partners purified
T1 construct: MCP-1 (monocyte chemo-attractant protein-1), chemokine; synthetic gene optimised for E. coli in pET26b; Probably the mature human chemokine, as in PDB 2BDN; also called monocyte chemotactic protein-1; antigen; source: E. coli Rosetta2 (DE3), purified (Ni-NTA, SEC)
Assay endpoint: Kd (nM)
Value expressed in nM; do not type the unit.

Examples with their reported Kd follow.
{"Binder": "11K2 scFv mutein H-D31E (scFv, V domains shown, PDB 2BDN heavy chain) with the stated change; PDB 2BDN light chain)) VH: EVQLQQSGAELVKAGASVKLSCPASGLNIKETYMHWVKQRPEQGLEWIGRIDPANGNTKFDPKFQGKATITADTSSNTAYLQLSSLTSEDTAVYYCARGVFGFFDYWGQGTTLTVSS VL: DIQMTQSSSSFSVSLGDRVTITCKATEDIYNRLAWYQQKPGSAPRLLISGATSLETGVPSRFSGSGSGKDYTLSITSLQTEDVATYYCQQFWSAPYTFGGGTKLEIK", "Kd (nM)": 5}
{"Binder": "11K2 scFv mutein L-N31K (scFv, V domains shown, PDB 2BDN heavy chain; PDB 2BDN light chain) with the stated change; also called L-D31K (printed once in the results)) VH: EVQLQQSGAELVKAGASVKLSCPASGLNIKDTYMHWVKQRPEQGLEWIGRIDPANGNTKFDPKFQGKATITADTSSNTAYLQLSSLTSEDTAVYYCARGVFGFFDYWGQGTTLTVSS VL: DIQMTQSSSSFSVSLGDRVTITCKATEDIYKRLAWYQQKPGSAPRLLISGATSLETGVPSRFSGSGSGKDYTLSITSLQTEDVATYYCQQFWSAPYTFGGGTKLEIK", "Kd (nM)": 290}
{"Binder": "11K2 scFv mutein L-T56D (scFv, V domains shown, PDB 2BDN heavy chain; PDB 2BDN light chain) with the stated change) VH: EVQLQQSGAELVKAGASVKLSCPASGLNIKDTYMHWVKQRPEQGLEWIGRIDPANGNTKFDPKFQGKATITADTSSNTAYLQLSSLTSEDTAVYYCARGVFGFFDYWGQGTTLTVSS VL: DIQMTQSSSSFSVSLGDRVTITCKATEDIYNRLAWYQQKPGSAPRLLISGATSLEDGVPSRFSGSGSGKDYTLSITSLQTEDVATYYCQQFWSAPYTFGGGTKLEIK", "Kd (nM)": 0.39}

Name the recorded Kd for 11K2 scFv mutein L-T56E (scFv, V domains shown, PDB 2BDN heavy chain; PDB 2BDN light chain) with the stated change) VH: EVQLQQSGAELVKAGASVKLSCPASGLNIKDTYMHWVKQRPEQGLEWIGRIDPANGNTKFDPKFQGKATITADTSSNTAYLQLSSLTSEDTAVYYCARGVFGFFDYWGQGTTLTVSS VL: DIQMTQSSSSFSVSLGDRVTITCKATEDIYNRLAWYQQKPGSAPRLLISGATSLEEGVPSRFSGSGSGKDYTLSITSLQTEDVATYYCQQFWSAPYTFGGGTKLEIK .
0.25

Name the recorded Kd for 11K2 scFv mutein H-L27R (scFv, V domains shown, PDB 2BDN heavy chain) with the stated change; PDB 2BDN light chain)) VH: EVQLQQSGAELVKAGASVKLSCPASGRNIKDTYMHWVKQRPEQGLEWIGRIDPANGNTKFDPKFQGKATITADTSSNTAYLQLSSLTSEDTAVYYCARGVFGFFDYWGQGTTLTVSS VL: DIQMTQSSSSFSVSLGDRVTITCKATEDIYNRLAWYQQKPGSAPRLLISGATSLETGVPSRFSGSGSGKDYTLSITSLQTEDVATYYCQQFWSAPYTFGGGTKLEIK .
2.4

Hey, just so you know, these numbers are from paper PMC3903617.
